Entry source: ChEMBL document CHEMBL1201862

# System: OVCAR-5
# PROCEDURE TEXT: NCI tumour cell line growth inhibition, 48 h
Active and inactive are the calls of the source. No stated cut-off is given here; in the data, active = GI50 up to about 1.1 µM and inactive = higher.
REPORTED ENDPOINT: GI50

See these solved cases before continuing.
# COMPOUND, ENDPOINT VALUE
records = [
    ("CN(C)CCNc1nc2c(c(=O)n(C)c(=O)n2C)n1C", "> 100 µM (inactive)"),
    ("[O-][S+](CC1(O)CCCCC1)c1ccccc1 (configuration not stated)", "> 100 µM (inactive)"),
    ("CO/N=[N+](\\[O-])NC(C)C", "> 100 µM (inactive)"),
    ("C=C1CCCCCCCCCCC1[S+]([O-])c1ccccc1 (configuration not stated)", "49.8 µM (inactive)"),
    ("O=C1CN(c2ccccc2)Cc2nc(Cl)ccc2N1", "> 100 µM (inactive)"),
]

Entry SC1CCCN(Cc2ccccc2)C1 (configuration not stated) : reported GI50 = ?
> 100 µM (inactive)

Entry O=C1Nc2ccc(Br)cc2/C1=N/Nc1ccccc1[N+](=O)[O-] : reported GI50 = ?
12.7 µM (inactive)

Entry CSc1nc(NC2OCC(OC(C)=O)C(OC(C)=O)C2OC(C)=O)c(/N=C(\C)C(C)=O)c(=O)[nH]1 (configuration not stated) : reported GI50 = ?
> 100 µM (inactive)
